Control effect (%) Wheat powdery mildew values, listed per item
# Tested on: wheat powdery mildew
# experiment_summary: Field trial, wheat powdery mildew
# Format: in vivo, Erysiphe graminis
# settings: 100 mg/L, sprayed once
endpoint_label: Control effect (%) Wheat powdery mildew

molecule="OC(Cc1ccccc1Cl)(Cn1nc[nH]c1=S)C1(Cl)CC1 (stereo not shown)" endpoint_label="Control effect (%) Wheat powdery mildew" reported=93
molecule="CON(C(=O)c1cn(C)nc1C(F)F)C(C)Cc1c(Cl)cc(Cl)cc1Cl (stereo not shown)" endpoint_label="Control effect (%) Wheat powdery mildew" reported=91.0
molecule="Cn1cc(C(=O)Nc2cccc3c2[C@@H]2CC[C@H]3C2=C(Cl)Cl)c(C(F)F)n1 (racemic)" endpoint_label="Control effect (%) Wheat powdery mildew" reported=95
molecule=Cn1cc(C(=O)Nc2ccccc2Oc2ccc(C(F)(F)F)cc2C(F)(F)F)c(C(F)F)n1 endpoint_label="Control effect (%) Wheat powdery mildew" reported=98

----------
# System: cucumber powdery mildew
# experiment_summary: Greenhouse pot test, cucumber powdery mildew
# Type: in vivo
# settings: Cucumis sativus, 192 h; greenhouse pot, 6.25 mg/L; read-out: Control effect (%) Cucumber powdery mildew
endpoint_label: pest or weed control at 6.25 µg/mL (%)

compound=Cn1nc(C(F)F)c(C(=O)Nc2ccccc2Oc2ccc(C(F)(F)F)cc2I)c1F reported=45
compound=Cn1nc(C(F)F)c(C(=O)Nc2ccccc2Oc2ccc(C(F)(F)F)cc2Br)c1F reported=45
compound=Cn1nc(C(F)F)c(C(=O)Nc2ccccc2Oc2ccc(C(F)(F)F)cc2C(F)(F)F)c1F reported=50
compound=Cn1cc(C(=O)Nc2ccccc2Oc2ccc(C(F)(F)F)cc2Cl)c(C(F)F)n1 reported=40
compound="OC(Cc1ccccc1Cl)(Cn1nc[nH]c1=S)C1(Cl)CC1 (stereo not shown)" reported=85
compound=Cn1cc(C(=O)Nc2ccccc2Oc2ccc(Cl)cc2Cl)c(C(F)F)n1 reported=30
compound=Cn1cc(C(=O)Nc2ccccc2Oc2ccc(C(F)(F)F)cc2C(F)(F)F)c(C(F)F)n1 reported=100

----------
Collected pest or weed control at 1.5625 µg/mL values appear next to each entry.
# Test system: wheat powdery mildew (Erysiphe graminis)
# experiment_summary: Greenhouse pot test, wheat powdery mildew
# Type: in vivo
# settings: Blumeria graminis, 168 h, 1.5625 mg/L, read-out: Control effect (%) Wheat powdery mildew
endpoint_label: pest or weed control at 1.5625 µg/mL

given_smiles=Cn1cc(C(=O)Nc2ccccc2Oc2ccc(C(F)(F)F)cc2Cl)c(C(F)F)n1 target_entity="wheat powdery mildew (Erysiphe graminis)" reported=70%
given_smiles=Cn1cc(C(=O)Nc2ccccc2Oc2ccc(C(F)(F)F)cc2I)c(C(F)F)n1 target_entity="wheat powdery mildew (Erysiphe graminis)" reported=30%
given_smiles=Cn1cc(C(=O)Nc2ccccc2Oc2ccc(C(F)(F)F)cc2C(F)(F)F)c(C(F)F)n1 target_entity="wheat powdery mildew (Erysiphe graminis)" reported=85%
given_smiles=Cn1cc(C(=O)Nc2ccccc2Oc2ccc(Cl)cc2Cl)c(C(F)F)n1 target_entity="wheat powdery mildew (Erysiphe graminis)" reported=0%

----------
# System: soybean rust (Phakopsora pacchyrhizi Sydow)
# experiment_summary: Greenhouse pot test, soybean rust
# Format: in vivo
# settings: Glycine max, 168 h, 6.25 mg/L, read-out: Control effect (%) Soybean rust
Each entry below carries its reported pest or weed control at 6.25 µg/mL.
endpoint_label: pest or weed control at 6.25 µg/mL (%)

molecule="Cn1nc(C(F)F)c(C(=O)Nc2ccccc2Oc2ccc(C(F)(F)F)cc2Br)c1F [Compound 2]" reported=96
molecule="Cn1cc(C(=O)Nc2ccccc2Oc2cc(C(F)(F)F)ccc2C(F)(F)F)c(C(F)F)n1 [Compound 5]" reported=95
molecule="Cn1cc(C(=O)Nc2ccccc2Oc2ccc(C(F)(F)F)cc2Cl)c(C(F)F)n1 [Compound 8]" reported=99
molecule="Cn1nc(C(F)F)c(C(=O)Nc2ccccc2Oc2ccc(C(F)(F)F)cc2C(F)(F)F)c1F [Compound 6]" reported=90
molecule="Cn1cc(C(=O)Nc2ccccc2Oc2ccc(C(F)(F)F)cc2I)c(C(F)F)n1 [Compound 4]" reported=100
molecule="Cn1nc(C(F)F)c(C(=O)Nc2ccccc2Oc2ccc(C(F)(F)F)cc2I)c1F [Compound 3]" reported=85
molecule="Cn1cc(C(=O)Nc2ccccc2Oc2ccc(Cl)cc2Cl)c(C(F)F)n1 [Compound 7]" reported=96
molecule="Cn1cc(C(=O)Nc2ccccc2Oc2ccc(C(F)(F)F)cc2C(F)(F)F)c(C(F)F)n1 [Compound 1]" reported=100
